biological target: Carbonic anhydrase 9 (Homo sapiens); experiment: Inhibition of recombinant human CA-IX incubated for 15 mins by phenol red dye based stopped-flow CO2 hydration assay
PROPERTY LABEL: Ki (nM)

NS(=O)(=O)c1cccc(NC2=CC(c3ccccc3)N(c3cccc(S(N)(=O)=O)c3)C2=O)c1 (centres undefined)
58
NS(=O)(=O)c1cccc(NC2=CC(c3ccc4c(c3)OCO4)N(c3cccc(S(N)(=O)=O)c3)C2=O)c1 (centres undefined)
443

[1] COc1ccc(O)c(C2C=C(Nc3cccc(S(N)(=O)=O)c3)C(=O)N2c2cccc(S(N)(=O)=O)c2)c1 (centres undefined)
[2] N#Cc1ccc(C2C=C(Nc3cccc(S(N)(=O)=O)c3)C(=O)N2c2cccc(S(N)(=O)=O)c2)cc1 (centres undefined)
Query block: Pick one, 1 or 2 : lowest reported Ki. Give the chosen item's label as your response.
Result block: 1
(1: 52.4 nM, 2: 345 nM)

----------
assay: Synergistic cytotoxicity against human HGF cells assessed as inhibition of cell viability incubated for 24 hrs in presence of DOX by MTS assay; type: toxicity, cell-based
PROPERTY LABEL: IC50 at 24 h (µM)
Report only the number, with the unit µM understood.

Here is how some compounds turned out for IC50 at 24 h.
NS(=O)(=O)c1cccc(NC2=CC(c3ccc(F)cc3)N(c3cccc(S(N)(=O)=O)c3)C2=O)c1 (stereo not drawn)
19.6
NS(=O)(=O)c1cccc(NC2=CC(c3ccccc3O)N(c3cccc(S(N)(=O)=O)c3)C2=O)c1 (stereo not drawn)
36.4

Let us move to another entry and its IC50 at 24 h.
The reported IC50 at 24 h of the compound COc1cccc(C2C=C(Nc3cccc(S(N)(=O)=O)c3)C(=O)N2c2cccc(S(N)(=O)=O)c2)c1O (stereo not drawn) was 27.5

----------
tested on: MeWo; test: Cytotoxicity against human MeWo cells assessed as inhibition of cell viability incubated for 24 hrs by MTS assay; format: functional, cell-based
PROPERTY LABEL: pIC50
Friendly reminder that pIC50 comes from taking -log10 of the concentration in mol/L.

Here is how some compounds turned out for pIC50.
NS(=O)(=O)c1cccc(NC2=CC(c3ccccc3O)N(c3cccc(S(N)(=O)=O)c3)C2=O)c1 (stereo not drawn)
4.03
COc1cccc(C2C=C(Nc3cccc(S(N)(=O)=O)c3)C(=O)N2c2cccc(S(N)(=O)=O)c2)c1O (stereo not drawn)
4.20

Let us move to another entry and its pIC50.
The reported pIC50 of the compound NS(=O)(=O)c1cccc(NC2=CC(c3ccc(F)cc3)N(c3cccc(S(N)(=O)=O)c3)C2=O)c1 (stereo not drawn) was 4.16

----------
assay: Cytotoxicity against human HGF cells assessed as inhibition of cell viability incubated for 24 hrs by MTS assay; type: toxicity, cell-based
PROPERTY LABEL: IC50 at 24 h (µM)
Report only the number, with the unit µM understood.

NS(=O)(=O)c1cccc(NC2=CC(c3ccccc3O)N(c3cccc(S(N)(=O)=O)c3)C2=O)c1 (stereo not drawn)
117
COc1cccc(C2C=C(Nc3cccc(S(N)(=O)=O)c3)C(=O)N2c2cccc(S(N)(=O)=O)c2)c1O (stereo not drawn)
70.7

Let us move to another entry and its IC50 at 24 h.
The reported IC50 at 24 h of the compound NS(=O)(=O)c1cccc(NC2=CC(c3ccc(F)cc3)N(c3cccc(S(N)(=O)=O)c3)C2=O)c1 (stereo not drawn) was 85.8

Entry source: ChEMBL document CHEMBL6087485
